Provide the reported Ki of each item.
biological target: UniProtKB P07265; assay: Uncompetitive inhibition of yeast alpha-glucosidase by Lineweaver-Burk plot analysis
Give the value, in units of µM, as a plain number.

Recorded Ki for O=C(/C=C/c1ccc(O)c(O)c1)NCCc1c[nH]c2ccc(O)cc12 on UniProtKB P07265 was 64.4

Recorded Ki for O=C(/C=C/c1ccc(O)cc1)NCCc1c[nH]c2ccc(O)cc12 on UniProtKB P07265 was 81.6

----------
biological target: UniProt P07265; test: Mixed-type inhibition of yeast alpha-glucosidase by Lineweaver-Burk plot analysis
testReadout: Ki

Summary for this compound, COc1cc(/C=C/C(=O)NCCc2c[nH]c3ccc(O)cc23)ccc1O : Ki is 130 µM

Summary for this compound, COc1cc(/C=C/C(=O)NCCc2c[nH]c3ccc(O)cc23)cc(OC)c1O : Ki is 111 µM

----------
biological target: Alpha-glucosidase MAL62 (Saccharomyces cerevisiae, UniProt P07265); assay: Competitive inhibition of yeast alpha-glucosidase by Dixon plot analysis
Sequence (P07265 whole entry): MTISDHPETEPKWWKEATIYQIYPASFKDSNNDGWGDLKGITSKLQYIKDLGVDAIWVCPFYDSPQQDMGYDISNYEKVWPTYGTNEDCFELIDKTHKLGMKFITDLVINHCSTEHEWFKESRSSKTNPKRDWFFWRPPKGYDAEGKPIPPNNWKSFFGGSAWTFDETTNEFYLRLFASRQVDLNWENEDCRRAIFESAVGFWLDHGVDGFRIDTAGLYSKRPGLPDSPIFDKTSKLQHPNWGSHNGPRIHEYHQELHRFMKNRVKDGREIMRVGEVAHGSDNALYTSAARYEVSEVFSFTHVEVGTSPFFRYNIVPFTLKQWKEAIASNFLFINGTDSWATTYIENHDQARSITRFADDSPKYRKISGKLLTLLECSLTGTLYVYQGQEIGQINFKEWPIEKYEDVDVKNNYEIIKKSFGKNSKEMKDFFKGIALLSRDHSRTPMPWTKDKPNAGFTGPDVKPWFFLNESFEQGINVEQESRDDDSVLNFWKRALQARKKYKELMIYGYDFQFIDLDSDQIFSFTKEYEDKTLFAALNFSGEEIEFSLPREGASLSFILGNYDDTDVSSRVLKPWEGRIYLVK
testReadout: Ki (µM)
Give the value, in units of µM, as a plain number.

Summary for this compound, O=C(/C=C/c1ccccc1)NCCc1c[nH]c2ccc(O)cc12 : Ki is 133

----------
pIC50: −log10 of the molar value.
testReadout: pIC50

Recorded pIC50 for COc1cc(/C=C/C(=O)NCCc2c[nH]c3ccc(O)cc23)ccc1O on Alpha-glucosidase MAL62 (Saccharomyces cerevisiae) was 4.00

Recorded pIC50 for O=C(CCc1ccccc1)NCCc1c[nH]c2ccc(O)cc12 [N-DIHYDROCINNAMOYL SEROTONIN] on Alpha-glucosidase MAL62 (Saccharomyces cerevisiae) was < 3.52

Recorded pIC50 for COc1cc(/C=C/C(=O)O)ccc1O [FERULATE] on Alpha-glucosidase MAL62 (Saccharomyces cerevisiae) was < 3.52

Recorded pIC50 for O=C(CCc1ccc(O)cc1)NCCc1c[nH]c2ccc(O)cc12 [N-DIHYDRO-P-COUMAROYLSEROTONIN] on Alpha-glucosidase MAL62 (Saccharomyces cerevisiae) was < 3.52

Recorded pIC50 for O=C(/C=C/c1ccccc1)NCCc1c[nH]c2ccc(O)cc12 on Alpha-glucosidase MAL62 (Saccharomyces cerevisiae) was 4.09

Recorded pIC50 for O=C(CCc1ccc(O)c(O)c1)NCCc1c[nH]c2ccc(O)cc12 [N-DIHYDROCAFFEOYL SEROTONIN] on Alpha-glucosidase MAL62 (Saccharomyces cerevisiae) was < 3.52

----------
molecular target: Alpha-glucosidase MAL62 (Saccharomyces cerevisiae) (UniProt P07265); assay: Inhibition of yeast alpha-glucosidase using p-nitrophenyl-alpha-D-glucopyranoside as substrate preincubated at 300 uM for 10 min before substrate addition and measured after 10 min by spectrophotometry
Sequence (P07265 whole entry): as above
Provide the reported inhibition of each item.
Give the value, in units of %, as a plain number.

Summary for this compound, O=C(O)/C=C/c1ccccc1 [CINNAMIC ACID] : inhibition is 4.5

Summary for this compound, O=C(O)/C=C/c1ccc(O)cc1 [COUMARIC ACID] : inhibition is 4.9

Summary for this compound, O=C(O)/C=C/c1ccc(O)c(O)c1 [CAFFEIC ACID] : inhibition is 10.2

Summary for this compound, NCCc1c[nH]c2ccc(O)cc12 [SEROTONIN] : inhibition is 25.6

----------
target: Alpha-glucosidase MAL62 (Saccharomyces cerevisiae) (UniProt P07265); experiment: Inhibition of yeast alpha-glucosidase using p-nitrophenyl-alpha-D-glucopyranoside as substrate preincubated for 10 min before substrate addition and measured after 10 min by spectrophotometry
testReadout: inhibition

1) COc1ccc(/C=C/C(=O)NCCc2c[nH]c3ccc(O)cc23)cc1 = Dose-dependent effect
2) O=C(/C=C/c1ccc(O)c(O)c1)NCCc1c[nH]c2ccc(O)cc12 = Dose-dependent effect
3) COc1cc(/C=C/C(=O)NCCc2c[nH]c3ccc(O)cc23)cc(OC)c1O = Dose-dependent effect
4) COc1cc(/C=C/C(=O)NCCc2c[nH]c3ccc(O)cc23)ccc1O = Dose-dependent effect

----------
molecular target: Alpha-glucosidase MAL62 (Saccharomyces cerevisiae); test: Inhibition of yeast alpha-glucosidase using p-nitrophenyl-alpha-D-glucopyranoside as substrate preincubated for 10 min before substrate addition and measured after 10 min by spectrophotometry
testReadout: IC50

Summary for this molecule, COc1cc(CCC(=O)NCCc2c[nH]c3ccc(O)cc23)cc(OC)c1O [N-DIHYDROSINAPOYL SEROTONIN] : IC50 is > 300 µM

Summary for this molecule, O=C(/C=C/c1ccc(O)cc1)NCCc1c[nH]c2ccc(O)cc12 [N-P-COUMAROYL SEROTONIN] : IC50 is 47.2 µM

Summary for this molecule, NCCc1c[nH]c2ccc(O)cc12 [SEROTONIN] : IC50 is > 300 µM

Summary for this molecule, O=C(O)/C=C/c1ccc(O)cc1 [COUMARIC ACID] : IC50 is > 300 µM

Summary for this molecule, O=C(O)/C=C/c1ccccc1 [CINNAMIC ACID] : IC50 is > 300 µM

Summary for this molecule, COc1cc(/C=C/C(=O)NCCc2c[nH]c3ccc(O)cc23)cc(OC)c1O [N-SINAPOYL SEROTONIN] : IC50 is 66.2 µM

Summary for this molecule, O=C(O)/C=C/c1ccc(O)c(O)c1 [CAFFEIC ACID] : IC50 is > 300 µM

Summary for this molecule, COc1cc(CCC(=O)NCCc2c[nH]c3ccc(O)cc23)ccc1O [N-DIHYDROFERULOYL SEROTONIN] : IC50 is > 300 µM

Summary for this molecule, COc1cc(/C=C/C(=O)O)cc(OC)c1O [SINAPINATE] : IC50 is 145 µM
